Molecular target: SARS-CoV-2 spike receptor-binding domain (2019-nCoV RBD-SD1, residues 319–566) (SARS-CoV-2, UniProt P0DTC2)
Assay: BLI
Details: both partners purified
VALUE TYPE: pKd
pKd (log units): -log10 of the concentration in mol/L.

[
  {
    "BINDER": "sybody 42 (Sb42) (VHH, source: E. coli MC1061 F-, periplasmic extract, purified (Ni-NTA, desalted in PBS)) VHH: QVQLVESGGGLVQAGGSLRLSCAASGFPVYNTWMEWYRQAPGKEREWVAAITSWGFKTYYADSVKGRFTISRDNAKNTVYLQMNSLKPEDTAVYYCNVKDEGYTGYYYDYWGQGTQVTVS",
    "pKd": 8.30
  },
  {
    "BINDER": "sybody 76 (Sb76) (VHH, source: E. coli MC1061 F-, periplasmic extract, purified (Ni-NTA, desalted in PBS)) VHH: QVQLVESGGGLVQAGGSLRLSCAASSFPVDTYHMAWYRQAPGKEREWVAAIVSWGWRTYYADSVKGRFTISRDNAKNTVYLQMNSLKPEDTAVYYCNVKDIGAQEVHYDYWGQGTQVTVS",
    "pKd": 7.24
  },
  {
    "BINDER": "sybody 95 (Sb95) (VHH, source: E. coli MC1061 F-, periplasmic extract, purified (Ni-NTA, desalted in PBS)) VHH: QVQLVESGGGSVQAGGSLRLSCAASGNIYNIKYLGWFRQAPGKEREGVAALMTRYGETYYADSVKGRFTVSLDNAKNTVYLQMNSLKPEDTALYYCAAASYGANWPLVSAAYTYWGQGTQVTVS",
    "pKd": 7.36
  }
]

# pKd (binder: sybody 23 (Sb23) (VHH, source: E. coli MC1061 F-, periplasmic extract, purified (Ni-NTA, desalted in PBS)) VHH: QVQLVESGGGLVQAGGSLRLSCAASGFPVESENMHWYRQAPGKEREWVAAIYSTGGWTLYADSVKGRFTISRDNAKNTVYLQMNSLKPEDTAVYYCAVQVGYWYEGQGTQVTVS ) is 7.97

# pKd (binder: sybody 100 (Sb100) (VHH, source: E. coli MC1061 F-, periplasmic extract, purified (Ni-NTA, desalted in PBS)) VHH: QVQLVESGGGSVQAGGSLRLSCAASGSISSITYLGWFRQAPGKEREGVAALVTSDGRTYYADSVKGRFTVSLDNAKNTVYLQMNSLKPEDTALYYCAAANWGYSWPLYQTEYWYWGQGTQVTVS ) is 7.41

# pKd (binder: sybody 12 (Sb12) (VHH, source: E. coli MC1061 F-, periplasmic extract, purified (Ni-NTA, desalted in PBS)) VHH: QVQLVESGGGLVQAGGSLRLSCAASGFPVQLYWMEWYRQAPGKEREWVAAITSDGDYTEYADSVKGRFTISRDNAKNTVYLQMNSLKPEDTAVYYCYVKVGEWYYGQGTQVTVS ) is 7.62
